# Test system: Escherichia coli TOP10
# METHOD: shrunken log2 fold change of peptide-encoding DNA abundance (4.5 h post-induction vs induction); higher = less antimicrobial activity (less host growth inhibition)
# CONDITION: time post-induction: 4.5 h; library: site-saturation at positions 5, 18, 19, 20
Decide using shrunken log2 fold change: a value greater than or equal to 0.04 is class 1, a smaller one is class 0.

Previously resolved entries follow.
>>> print(df.to_string())
            query_sequence  label_class
0  RRIRPRPPRLPRPRPRPYMHPRP      class 0
1  RRIRGRPPRLPRPRPRPSCSPRP      class 1
2  RRIRMRPPRLPRPRPRPPQTPRP      class 1
3  RRIRMRPPRLPRPRPRPVWGPRP      class 1
4  RRIRARPPRLPRPRPRPYTYPRP      class 0

Decide: shrunken log2 fold change of RRIRVRPPRLPRPRPRPAIDPRP >= 0.04? class 1

Is the recorded value of shrunken log2 fold change equal to or greater than 0.04 for this sequence? RRIRCRPPRLPRPRPRPGGMPRP class 1

====

# Tested on: Escherichia coli TOP10
# METHOD: shrunken log2 fold change of peptide-encoding DNA abundance (4.5 h post-induction vs induction); higher = less antimicrobial activity (less host growth inhibition)
# CONDITION: time post-induction: 4.5 h; library: site-saturation at positions 5, 18, 19, 20
Think of -0.01 as a floor: if shrunken log2 fold change stands on it or above, it is met; beneath it, not met.

The examples below pair each entry with its known result.
            query_sequence  label_class
0  RRIRYRPPRLPRPRPRPIRKPRP      not met
1  RRIRDRPPRLPRPRPRPPIKPRP      not met
2  RRIRHRPPRLPRPRPRPKRFPRP          met

Proceed to the following item.
# check: shrunken log2 fold change of RRIRTRPPRLPRPRPRPQAYPRP is greater than or equal to -0.01 not met

====

In this section, each of the sequences is paired with its reported shrunken log2 fold change.
# Test system: Escherichia coli TOP10
# METHOD: shrunken log2 fold change of peptide-encoding DNA abundance (4.5 h post-induction vs induction); higher = less antimicrobial activity (less host growth inhibition)
# CONDITION: time post-induction: 4.5 h; library: site-saturation at positions 5, 18, 19, 20

>>> print(df.to_string())
            query_sequence  reported_value
0  RRIRWRPPRLPRPRPRPMQTPRP               1

Looking for the measured shrunken log2 fold change of RRIRRRPPRLPRPRPRPFNRPRP , can you help? -0.557

Data request, read-out shrunken log2 fold change, for RRIRKRPPRLPRPRPRPHYGPRP -0.0816

For the sequence shown here, RRIRTRPPRLPRPRPRPDSRPRP , give the reported shrunken log2 fold change. -0.00822

Fill blank: measured shrunken log2 fold change of the sequence RRIRTRPPRLPRPRPRPVDDPRP is ____. -0.018

Given RRIRMRPPRLPRPRPRPWEEPRP , state its recorded shrunken log2 fold change. 0.317

====

# System: Escherichia coli TOP10;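 also: peptides expressed intracellularly from a pBAD plasmid library in pooled LB shake-flask culture, induced with 0.3% L-arabinose, DNA abundance read by NGS, three biological replicates, DESeq2 with apeglm shrinkage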
# METHOD: shrunken log2 fold change of peptide-encoding DNA abundance (4.5 h post-induction vs induction); higher = less antimicrobial activity (less host growth inhibition)
# CONDITION: time post-induction: 4.5 h; library: site-saturation at positions 5, 18, 19, 20
Returns TRUE if the recorded shrunken log2 fold change is greater than or equal to -0.1, and FALSE otherwise.

Consider the following illustrative entries.
>>> df
            query_sequence  label_class
0  RRIRSRPPRLPRPRPRPSSCPRP        FALSE
1  RRIRDRPPRLPRPRPRPCMQPRP         TRUE
2  RRIRGRPPRLPRPRPRPIMLPRP         TRUE
3  RRIRVRPPRLPRPRPRPHDAPRP        FALSE
4  RRIRGRPPRLPRPRPRPPRIPRP         TRUE
5  RRIRQRPPRLPRPRPRPLWKPRP         TRUE
6  RRIRHRPPRLPRPRPRPSMLPRP        FALSE
7  RRIRPRPPRLPRPRPRPVQNPRP        FALSE

Exam item: decide whether the reported shrunken log2 fold change for RRIRIRPPRLPRPRPRPTPRPRP is at least -0.1. TRUE

hey, is shrunken log2 fold change for this one >= -0.1? RRIRARPPRLPRPRPRPSILPRP FALSE

Evaluate RRIRCRPPRLPRPRPRPIGLPRP : shrunken log2 fold change at minimum -0.1? TRUE

Test whether the sequence RRIRQRPPRLPRPRPRPVHAPRP records shrunken log2 fold change of -0.1 or higher. TRUE

Could you please find out whether RRIRQRPPRLPRPRPRPVYKPRP has shrunken log2 fold change that meets -0.1 or exceeds it? FALSE

API: above_or_equal(metric=shrunken log2 fold change, cutoff=-0.1) for item RRIRCRPPRLPRPRPRPTVKPRP FALSE

Tell me whether shrunken log2 fold change is at least -0.1 here: RRIRIRPPRLPRPRPRPCSIPRP TRUE

Reported shrunken log2 fold change at or above -0.1? RRIRNRPPRLPRPRPRPLLWPRP TRUE

Textbook exercise: given the entry RRIRKRPPRLPRPRPRPVIWPRP , state whether its shrunken log2 fold change is greater than or equal to -0.1. TRUE

Is it the case that RRIRLRPPRLPRPRPRPVYCPRP has shrunken log2 fold change reaching or exceeding -0.1? FALSE

Hi, just wondering whether RRIRSRPPRLPRPRPRPEVNPRP shows shrunken log2 fold change of -0.1 or higher. TRUE

Quick check, shrunken log2 fold change >= -0.1? RRIRHRPPRLPRPRPRPIKLPRP FALSE

Can RRIRWRPPRLPRPRPRPVKGPRP be said to have shrunken log2 fold change at or above -0.1? TRUE

Dear colleague, could you confirm whether RRIRWRPPRLPRPRPRPFKEPRP has shrunken log2 fold change at or above -0.1? FALSE
